- Tested on: RPMI-8226 leukemia
- assay-summary: NCI tumour cell line growth inhibition, 48 h
Each item that follows carries a reported TGI.

{"smiles-code": "Cn1cc(-c2ccc(=O)n(Cc3cccc(-c4ncc(OCCN5CCOCC5)cn4)c3)n2)cn1", "TGI": "> 100 µM"}
{"smiles-code": "Cc1ccc(-c2sc(-c3ccc(C)cc3)c3c2C2CCC3C2)cc1", "TGI": "> 50 µM"}
{"smiles-code": "CC(=O)Nc1ccc(Nc2cc(=O)n(C)c(=O)[nH]2)cc1", "TGI": "> 100 µM"}

====

- Tested on: IGROV1 ovarian
- assay-summary: NCI tumour cell line growth inhibition, 48 h
observation-type: TGI

{"compound": "N#C/C(=C1\\N=C(c2ccccc2O)Oc2ccccc21)c1ccc([N+](=O)[O-])cc1", "endpoint-value": "> 100 µM"}
{"compound": "CC(NC1=CC(=O)c2ncccc2C1=O)C(O)c1ccccc1 (stereo unspecified)", "endpoint-value": "16.4 µM"}
{"compound": "COc1ccccc1C(=O)/C=C/c1cc2cccc(OC)c2[nH]c1=O", "endpoint-value": "2.36 µM"}
{"compound": "ClC(Cl)(Cl)C1CCOC1n1nc2ccccc2n1 (stereo unspecified)", "endpoint-value": "> 100 µM"}
{"compound": "CSCCC(NCc1c(O)ccc2ccc(=O)oc12)C(=O)O (stereo unspecified)", "endpoint-value": "> 100 µM"}
{"compound": "O=C(CCCc1c[nH]c2ccccc12)NC1CC(=O)c2c(Br)sc(Br)c21 (stereo unspecified)", "endpoint-value": "40.5 µM"}
{"compound": "Cc1ccc(-c2c(C#N)c(N)nc(N3CCOCC3)c2C#N)o1", "endpoint-value": "59.6 µM"}
{"compound": "Cc1cn(CC2=NCCN2)c(=O)[nH]c1=O", "endpoint-value": "> 100 µM"}
{"compound": "COC(=O)c1ccc2c(c1)CC1(C2)Cc2cc3c(c(C(=O)OC)c2C1)CCCC3 (stereo unspecified)", "endpoint-value": "> 100 µM"}
{"compound": "O/N=C1/C(=C/c2ccc(F)cc2)CCCC1C(NO)c1ccc(F)cc1 (stereo unspecified)", "endpoint-value": "> 100 µM"}
{"compound": "COC(=O)[C@@H]1C=C[C@@H](C#N)n2c(=O)n(-c3ccccc3)c(=O)n21", "endpoint-value": "> 100 µM"}
{"compound": "COc1cc(C2C(Cl)C(=O)N2n2cnc3ccccc3c2=O)cc(OC)c1OC (stereo unspecified)", "endpoint-value": "> 100 µM"}
{"compound": "N#Cc1cccc(C2ON=C(c3ccc([N+](=O)[O-])cc3)N2C23CC4CC(CC(C4)C2)C3)c1 (stereo unspecified)", "endpoint-value": "> 100 µM"}
{"compound": "N[C@H]1C2C3CC4C5CC(C42)C1(c1ccccc1)C53 (stereo partly specified)", "endpoint-value": "> 100 µM"}
{"compound": "Cc1c2c(c(C)n1-c1ccccc1)C(=O)N(CCSC(=N)N)C2=O", "endpoint-value": "> 100 µM"}
{"compound": "CCOC(=O)Cc1c(Cc2[nH]c(C(=O)OCc3ccccc3)c(CC(=O)OCC)c2CC(=O)OCC)[nH]c(C(=O)OCc2ccccc2)c1CC(=O)OCC", "endpoint-value": "> 100 µM"}
{"compound": "ClC(=Nc1cccc2ccccc12)N(c1ccccc1)c1ccccc1", "endpoint-value": "> 100 µM"}
{"compound": "CC(Cl)(/C=C/Cl)C(Cl)/C=C/C(Cl)(CCl)CBr (stereo unspecified)", "endpoint-value": "25.1 µM"}
{"compound": "O=C(O)c1cccc(S(=O)(=O)NN2C(=O)CSC2c2ccccc2)c1 (stereo unspecified)", "endpoint-value": "> 100 µM"}
{"compound": "Oc1c(C2=NNC(c3cccs3)C2)ccc2ccccc12 (stereo unspecified)", "endpoint-value": "95.9 µM"}
{"compound": "Cc1cccc(/C=N/NC(=S)NCc2ccccn2)n1", "endpoint-value": "> 100 µM"}
{"compound": "C1=CN2C[n+]3cccc(OCc4ccccc4)c3N=C2C(OCc2ccccc2)=C1", "endpoint-value": "27.7 µM"}
{"compound": "Cc1ccc(S(=O)(=O)N2CCCSCCSCCCSCC2)cc1", "endpoint-value": "> 100 µM"}
{"compound": "O=[N+]([O-])c1ccc(Sc2ncccn2)c([N+](=O)[O-])c1", "endpoint-value": "13.6 µM"}
{"compound": "O=c1[nH]c2cc(C(F)(F)F)ccc2nc1Cc1ccccc1", "endpoint-value": "> 100 µM"}
{"compound": "NC(N)=NC(CC(=O)O)c1ccccc1 (stereo unspecified)", "endpoint-value": "> 100 µM"}
{"compound": "COc1ccc(/C(=C/c2cc(OC)c(OC)c(OC)c2)[N+](=O)[O-])cc1", "endpoint-value": "3.94 µM"}
{"compound": "N#C/C(=C\\c1c(-c2ccccc2)[nH]c2ccccc12)C(=O)c1ccc(Cl)cc1", "endpoint-value": "41.5 µM"}
{"compound": "CCCCOC(=O)C(=O)C(CC(C(=O)Cc1ccccc1)c1ccccc1)C(=O)C=C(C)C (stereo unspecified)", "endpoint-value": "> 100 µM"}
{"compound": "COC(=O)C1Cc2c([nH]c3ccccc23)C(c2cccc(O)c2)N1 (stereo unspecified)", "endpoint-value": "> 100 µM"}
{"compound": "O=C1/C(=C\\c2ccc(Cl)cc2)CN(C(=S)Nc2ccccc2)C/C1=C\\c1ccc(Cl)cc1", "endpoint-value": "2.87 µM"}

The reported measurements were obtained from PubChem BioAssay (NCI).
